target: T1, human CD8 (captured on the Octet biosensor) (human, UniProt P01732 22-182, limits assumed); test: Octet (BLI); human CD8 captured, dipped into multiple concentrations of the one-arm mAb
T1 construct: Construct not described; also called recombinant human CD8a
T1 sequence (P01732 22-182 limits assumed): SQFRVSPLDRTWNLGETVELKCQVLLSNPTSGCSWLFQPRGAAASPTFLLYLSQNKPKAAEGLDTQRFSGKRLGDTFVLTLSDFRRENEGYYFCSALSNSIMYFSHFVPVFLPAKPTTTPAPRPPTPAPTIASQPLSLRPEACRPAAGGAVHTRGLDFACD
Field: koff. Provide a value for each of the binders that follow.
Numbers only, in s⁻¹.

Reference set (2 entries):
XENP26234 (antibody, V domains shown, also called OKT8_H2.157_L1.103 one-arm mAb) VH: QVQLVQSGAEVKKPGASVKVSCKASGFNIKDTYIHWVRQAPGKGLEWMGRIDPDNGETLYASKFQGRVTMTADTSINTAYMELSRLRSDDTAVYYCGRGYGKYVFDHWGQGTTVTVSS VL: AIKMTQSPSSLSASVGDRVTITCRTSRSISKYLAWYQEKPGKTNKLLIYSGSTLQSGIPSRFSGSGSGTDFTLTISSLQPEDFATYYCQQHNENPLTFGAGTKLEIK    0.0124
XENP26238 (antibody, V domains shown, also called OKT8_H2.161_L1.103 one-arm mAb) VH: QVQLVQSGAEVKKPGASVKVSCKASGFNIKDTYIHWVRQAPGKGLEWMGRIDPDNDETLYASKFQGRVTITADTSINTAYMELSRLRSDDTAVYYCGRGYGKYVFDHWGQGTTVTVSS VL: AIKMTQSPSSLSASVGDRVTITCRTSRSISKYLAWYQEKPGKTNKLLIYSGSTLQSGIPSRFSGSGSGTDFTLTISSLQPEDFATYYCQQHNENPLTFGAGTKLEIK    0.0262

// moving on: another record for koff
Name the reported koff value associated with the binder XENP26241 (antibody, V domains shown, also called OKT8_H2.164_L1.103 one-arm mAb) VH: QVQLVQSGAEVKKPGASVKVSCKASGFNIKDTYIHWVRQAPGKGLEWMGRIDPDNDETLYASKFQGRVTMTADTSINTAYMELSRLRSDDTAVYYCGRGYGKYVFDHWGQGTTVTVSS VL: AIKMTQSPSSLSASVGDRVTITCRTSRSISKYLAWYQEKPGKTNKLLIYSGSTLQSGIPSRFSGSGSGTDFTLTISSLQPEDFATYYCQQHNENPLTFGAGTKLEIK
0.0148
